Task for the reader: assign each of the following molecules its reported inhibition at 5 µM.
molecular target: P38-b (Homo sapiens, UniProt Q15759); assay: Kinase panel (mobility shift); assay type: biochemical
Sequence (Q15759 whole entry, species assumed): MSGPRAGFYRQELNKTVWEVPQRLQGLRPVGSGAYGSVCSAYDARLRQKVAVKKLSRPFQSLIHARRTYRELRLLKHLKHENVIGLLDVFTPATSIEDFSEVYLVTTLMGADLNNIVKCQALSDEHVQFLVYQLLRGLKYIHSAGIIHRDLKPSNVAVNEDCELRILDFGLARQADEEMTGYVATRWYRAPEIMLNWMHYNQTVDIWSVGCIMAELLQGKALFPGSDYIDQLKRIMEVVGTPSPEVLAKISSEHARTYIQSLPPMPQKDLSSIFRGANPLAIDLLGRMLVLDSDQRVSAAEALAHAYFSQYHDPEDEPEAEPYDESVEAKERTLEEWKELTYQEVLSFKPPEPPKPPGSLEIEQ

Given CNC(=O)c1cc(Oc2ccc(NC(=O)c3nc(NC)oc3-c3ccc(F)cc3)cc2F)ccn1 , state its recorded inhibition at 5 µM.
< 50%

Dear colleague, could you send me inhibition at 5 µM for each of the items below? Thanks.
1. COc1nc(C(=O)Nc2ccc(Oc3ccnc(C(=O)NC4COC4)c3)c(F)c2)c(-c2ccc(F)cc2)o1
2. CNC(=O)c1cc(Oc2ccc(NC(=O)c3nc(NC)oc3-c3ccc(F)s3)cc2F)ccn1
3. CSc1nc(C(=O)Nc2ccc(Oc3cc4cnn(C)c4cc3Br)c(F)c2)c(-c2ccc(F)cc2)o1
4. CNC(=O)c1cc(Oc2ccc(NC(=O)c3nc(C4CC4)oc3-c3ccc(F)cc3)cc2F)ccn1
5. [2H]C([2H])([2H])NC(=O)c1cc(Oc2ccc(NC(=O)c3nc(SC)oc3-c3ccc(F)c(F)c3)cc2F)ccn1

< 50%
< 50%
50 to 79%
50 to 79%
< 50%

Dear colleague, could you send me inhibition at 5 µM for each of the items below? Thanks.
1. CNC(=O)c1cc(Oc2ccc(NC(=O)c3nc(OC)oc3-c3ccc(F)cc3)cc2F)ccn1
2. CSc1nc(C(=O)Nc2ccc(Oc3ccnc(C(=O)NCC(F)(F)F)c3)c(F)c2)c(-c2ccc(F)cc2)o1
3. CSc1nc(C(=O)Nc2ccc(Oc3ccnc(N)c3Cl)c(F)c2)c(-c2ccc(F)cc2)o1
4. CSc1nc(C(=O)Nc2ccc(Oc3ccnc(C(=O)NC4COC4)c3)c(F)c2)c(-c2ccc(F)cc2)o1
5. CNC(=O)c1cc(Oc2ccc(NC(=O)c3nc(SC)oc3-c3ccc(OC)cc3)cc2)ccn1
6. CNC(=O)c1cc(Oc2ccc(NC(=O)c3nc(OC)oc3-c3ccc(F)c(F)c3)cc2F)ccn1
7. CNC(=O)c1cc(Oc2ccc(NC(=O)c3nc(OC4CC4)oc3-c3ccc(F)cc3)cc2F)ccn1
8. CNC(=O)c1cc(Oc2ccc(NC(=O)c3nc(OCC(F)(F)F)oc3-c3ccc(F)cc3)cc2F)ccn1

< 50%
< 50%
< 50%
< 50%
< 50%
< 50%
50 to 79%
< 50%

Given CNC(=O)c1cc(Oc2c(F)cc(NC(=O)c3nc(NC)sc3-c3ccc(F)cc3)cc2F)ccn1 , state its recorded inhibition at 5 µM.
< 50%
